Data provenance is patent US5968910A.

Tested on: HIV-1(IIIB)
Assay: Knock-out concentrations: breakthrough of HIV-1(IIIB)-induced cytopathicity in CEM cell cultures
Assay type: cell-based
Details: Human immunodeficiency virus 1, IIIB, CCRF-CEM, 264 h; 0.1 μg/ml, day 11 post infection; read-out: HIV-1-induced cytopathicity in cell culture
Assign activity at 0.1 µg/mL to each entry below.
Numbers only, in %.

For orientation, consider the following solved cases.
- compound: "Cc1occc1C(=S)Nc1ccc(Cl)c(C=NOC(C)(C)C)c1"
  unit.tag: "%"
  activity at 0.1 µg/mL: 6.2
- compound: "CC(C)Nc1cccnc1N1CCN(C(=O)c2cc3ccccc3[nH]2)CC1 [BHAP U88204, reference compound]"
  unit.tag: "%"
  activity at 0.1 µg/mL: 50
- compound: "Cc1occc1C(=S)Nc1ccc(Cl)c(C(=O)OC2CCCCC2)c1"
  unit.tag: "%"
  activity at 0.1 µg/mL: 0
- compound: "Cc1occc1C(=S)Nc1ccc(Cl)c(C(=O)OC2CCCC2)c1"
  unit.tag: "%"
  activity at 0.1 µg/mL: 0
- compound: "O=C(OC1CCCCC1)c1cc(NC(=S)c2ccsc2)ccc1Cl"
  unit.tag: "%"
  activity at 0.1 µg/mL: 50

Challenge: What value of measured activity at 0.1 µg/mL is listed for Cc1occc1C(=S)Nc1ccc(Cl)c(C(=O)OCC(C)C)c1 ?
Response given: 0

----------
System: HIV-1/IV(0.1) 103-Thr
Assay: Sensitivity of mutant HIV-1 strain in CEM cell cultures
Assay type: cell-based
Details: Table 5
recorded.endpoint: EC50 (µg/mL)
Answers are plain numbers, in µg/mL.

- molecule: "Cc1cn([C@@H]2O[C@H](CO[Si](C)(C)C(C)(C)C)[C@@]3(OS(=O)(=O)C=C3N)[C@H]2O[Si](C)(C)C(C)(C)C)c(=O)n(C)c1=O"
  numeric.value: 0.30
- molecule: "CCOCn1c(Cc2ccccc2)c(C(C)C)c(=O)[nH]c1=O"
  numeric.value: 0.32
- molecule: "CC(C)Nc1cccnc1N1CCN(C(=O)c2cc3cc(NS(C)(=O)=O)ccc3[nH]2)CC1"
  numeric.value: 0.47

// below: EC50 requested for another molecule
Challenge: API: value(readout=EC50, system=HIV-1/IV(0.1) 103-Thr) for record Cc1ccnc2c1NC(=O)c1cccnc1N2C1CC1 [Nevirapine, reference compound]
Response given: 2.7

----------
System: HIV-1(IIIB)
Assay: Knock-out concentrations: breakthrough of HIV-1(IIIB)-induced cytopathicity in CEM cell cultures
Type: cell-based
Details: Human immunodeficiency virus 1, IIIB, CCRF-CEM, 1272 h; 0.5 μg/ml, day 53 post infection, compound absent from day 35; read-out: HIV-1-induced cytopathicity in cell culture
recorded.endpoint: activity at 0.5 µg/mL
Put your answer as a value accompanied by its unit after it.

Solved cases (5 shown):
- compound: "Cc1occc1C(=S)Nc1ccc(Cl)c(C(=O)OC2CCCCC2)c1 [Compound III]"
  activity at 0.5 µg/mL: "0%"
- compound: "O=C(OC1CCCCC1)c1cc(NC(=S)c2ccsc2)ccc1Cl [Compound V]"
  activity at 0.5 µg/mL: "100%"
- compound: "Cc1occc1C(=S)Nc1ccc(Cl)c(C=NOC(C)(C)C)c1 [Compound I]"
  activity at 0.5 µg/mL: "0%"
- compound: "Cc1occc1C(=S)Nc1ccc(Cl)c(C(=O)OC2CCCC2)c1 [Compound IV]"
  activity at 0.5 µg/mL: "0%"
- compound: "Cc1occc1C(=S)Nc1ccc(Cl)c(C(=O)OCC(C)C)c1 [Compound II]"
  activity at 0.5 µg/mL: "0%"

Challenge: Would you mind telling me what activity at 0.5 µg/mL value was observed for CC(C)Nc1cccnc1N1CCN(C(=O)c2cc3ccccc3[nH]2)CC1 [BHAP U88204, reference compound] ?
Response given: 100%

----------
Test system: HIV-1(IIIB)
Experiment: Knock-out concentrations: breakthrough of HIV-1(IIIB)-induced cytopathicity in CEM cell cultures
Format: cell-based
Conditions: Human immunodeficiency virus 1, IIIB, CCRF-CEM, 192 h; 0.5 μg/ml, day 8 post infection; read-out: HIV-1-induced cytopathicity in cell culture
recorded.endpoint: activity at 0.5 µg/mL (%)
Answers are plain numbers, in %.

Worked examples follow.
- compound: "Cc1occc1C(=S)Nc1ccc(Cl)c(C(=O)OCC(C)C)c1"
  activity at 0.5 µg/mL, %: 0
- compound: "Cc1occc1C(=S)Nc1ccc(Cl)c(C=NOC(C)(C)C)c1"
  activity at 0.5 µg/mL, %: 0
- compound: "CC(C)Nc1cccnc1N1CCN(C(=O)c2cc3ccccc3[nH]2)CC1 [BHAP U88204, reference compound]"
  activity at 0.5 µg/mL, %: 0

Respectfully, I request activity at 0.5 µg/mL for each entry included below.
1. Cc1occc1C(=S)Nc1ccc(Cl)c(C(=O)OC2CCCC2)c1
2. O=C(OC1CCCCC1)c1cc(NC(=S)c2ccsc2)ccc1Cl
3. Cc1occc1C(=S)Nc1ccc(Cl)c(C(=O)OC2CCCCC2)c1

Response given:
1: 0; 2: 0; 3: 0

----------
Provide the reported activity at 0.5 µg/mL of each item.
Test system: HIV-1(IIIB)
Assay: Knock-out concentrations: breakthrough of HIV-1(IIIB)-induced cytopathicity in CEM cell cultures
Format: cell-based
Conditions: Human immunodeficiency virus 1, IIIB, CCRF-CEM, 336 h; 0.5 μg/ml, day 14 post infection; read-out: HIV-1-induced cytopathicity in cell culture
Put your answer as a value accompanied by its unit after it.

Sample records with activity at 0.5 µg/mL:
- compound: "Cc1occc1C(=S)Nc1ccc(Cl)c(C(=O)OC2CCCC2)c1 [Compound IV]"
  activity at 0.5 µg/mL: "0%"
- compound: "CC(C)Nc1cccnc1N1CCN(C(=O)c2cc3ccccc3[nH]2)CC1 [BHAP U88204, reference compound]"
  activity at 0.5 µg/mL: "6.25%"

Report activity at 0.5 µg/mL for every entry below.
1. Cc1occc1C(=S)Nc1ccc(Cl)c(C=NOC(C)(C)C)c1 [Compound I]
2. Cc1occc1C(=S)Nc1ccc(Cl)c(C(=O)OC2CCCCC2)c1 [Compound III]
3. Cc1occc1C(=S)Nc1ccc(Cl)c(C(=O)OCC(C)C)c1 [Compound II]

Response given:
0%
0%
0%

Challenge: For O=C(OC1CCCCC1)c1cc(NC(=S)c2ccsc2)ccc1Cl [Compound V] , what is its reported activity at 0.5 µg/mL?
Response given: 18.5%

----------
System: HIV-1(IIIB) (WT)
Assay: microbe, parasite or virus in culture
Format: cell-based
Details: Human immunodeficiency virus 1, IIIB, CCRF-CEM; HIV-1 (III8), Table 5; read-out: EC50
Description: CEM cells were suspended at 250,000 cells per ml of culture medium and infected with wild-type HIV-I(IIIB) or mutant HIV-1 strains at 100 50% cell culture infective doses per ml. Then 100 μl of the infected cell suspensions was added to 200-μl microtiter plate wells containing 100 μl of an appropriate dilution of the test compounds. After 4 days incubation at 37° C., the cell cultures were examined for syncytium formation.
So basically, if EC50 comes in under 7 ng/mL it's T, and if it's 7 ng/mL or more it's F.

Examples with answers:
- compound: "Cc1cn([C@@H]2O[C@H](CO[Si](C)(C)C(C)(C)C)[C@@]3(OS(=O)(=O)C=C3N)[C@H]2O[Si](C)(C)C(C)(C)C)c(=O)n(C)c1=O [TSAO-m^3 T]"
  label: "F"
- compound: "O=C(OC1CCCCC1)c1cc(NC(=S)c2ccsc2)ccc1Cl [Compound V]"
  label: "F"
- compound: "Nc1ccn([C@@H]2CS[C@H](CO)O2)c(=O)n1 [Compound 3TC, (-)-2'-deoxy-3'-thiacytidine]"
  label: "F"
- compound: "Cc1occc1C(=S)Nc1ccc(Cl)c(C(=O)OC2CCCC2)c1 [Compound IV]"
  label: "T"
- compound: "CC(C)=CCN1Cc2cc(Cl)cc3[nH]c(=S)n(c23)C[C@@H]1C [TIBO R82913, reference compound]"
  label: "F"
- compound: "Cc1occc1C(=S)Nc1ccc(Cl)c(C=NOC(C)(C)C)c1 [Compound I]"
  label: "F"

Challenge: Please check: EC50 for Cc1occc1C(=S)Nc1ccc(Cl)c(C(=O)OC2CCCCC2)c1 [Compound III] , strictly under 7 ng/mL or not?
Response given: T

----------
Test system: HIV-1(IIIB)
Assay: Knock-out concentrations: breakthrough of HIV-1(IIIB)-induced cytopathicity in CEM cell cultures
Assay type: cell-based
Settings: Human immunodeficiency virus 1, IIIB, CCRF-CEM, 672 h; 0.1 μg/ml, day 28 post infection; read-out: HIV-1-induced cytopathicity in cell culture
recorded.endpoint: activity at 0.1 µg/mL (%)
One number for each entry, in %.

List reported activity at 0.1 µg/mL for each of these compounds:
1. Cc1occc1C(=S)Nc1ccc(Cl)c(C(=O)OC2CCCCC2)c1
2. CC(C)Nc1cccnc1N1CCN(C(=O)c2cc3ccccc3[nH]2)CC1 [BHAP U88204, reference compound]
3. Cc1occc1C(=S)Nc1ccc(Cl)c(C(=O)OC2CCCC2)c1
4. Cc1occc1C(=S)Nc1ccc(Cl)c(C(=O)OCC(C)C)c1
5. O=C(OC1CCCCC1)c1cc(NC(=S)c2ccsc2)ccc1Cl
6. Cc1occc1C(=S)Nc1ccc(Cl)c(C=NOC(C)(C)C)c1

Response given:
100
100
100
100
100
100
